Molecular target: Transient receptor potential cation channel subfamily V member 1 (Rattus norvegicus)
Test: Relative potency(RTX) against Dorsal Root Ganglion (DRG) membranes using RTX binding assay.
Format: functional, tissue-based
readout type: Relative Potency

compound	endpoint value
C=C(C)C12C[C@@H](C)C34OC(Cc5ccccc5)(OC1[C@@H]3C=C(COC(=O)Cc1ccc(OCCN)c(OC)c1)C[C@]1(O)C(=O)C(C)=CC41)O2 (single isomer, unassigned)	0.123
C=C(C)C12C[C@@H](C)C34OC(Cc5ccccc5)(OC1[C@@H]3C=C(COC(=O)Cc1ccc(OC)c(OC)c1)C[C@]1(O)C(=O)C(C)=CC41)O2 (single isomer, unassigned)	0.107
C=C(C)[C@@]12C[C@@H](C)C34OC(Cc5ccccc5)(OC1[C@@H]3C=C(CNC(=O)Cc1ccc(O)c(OC)c1)C[C@]1(O)C(=O)C(C)=C[C@@H]41)O2 (stereo partly drawn)	0.013

----------
Target: UniProtKB O35433
Sequence (O35433 whole entry): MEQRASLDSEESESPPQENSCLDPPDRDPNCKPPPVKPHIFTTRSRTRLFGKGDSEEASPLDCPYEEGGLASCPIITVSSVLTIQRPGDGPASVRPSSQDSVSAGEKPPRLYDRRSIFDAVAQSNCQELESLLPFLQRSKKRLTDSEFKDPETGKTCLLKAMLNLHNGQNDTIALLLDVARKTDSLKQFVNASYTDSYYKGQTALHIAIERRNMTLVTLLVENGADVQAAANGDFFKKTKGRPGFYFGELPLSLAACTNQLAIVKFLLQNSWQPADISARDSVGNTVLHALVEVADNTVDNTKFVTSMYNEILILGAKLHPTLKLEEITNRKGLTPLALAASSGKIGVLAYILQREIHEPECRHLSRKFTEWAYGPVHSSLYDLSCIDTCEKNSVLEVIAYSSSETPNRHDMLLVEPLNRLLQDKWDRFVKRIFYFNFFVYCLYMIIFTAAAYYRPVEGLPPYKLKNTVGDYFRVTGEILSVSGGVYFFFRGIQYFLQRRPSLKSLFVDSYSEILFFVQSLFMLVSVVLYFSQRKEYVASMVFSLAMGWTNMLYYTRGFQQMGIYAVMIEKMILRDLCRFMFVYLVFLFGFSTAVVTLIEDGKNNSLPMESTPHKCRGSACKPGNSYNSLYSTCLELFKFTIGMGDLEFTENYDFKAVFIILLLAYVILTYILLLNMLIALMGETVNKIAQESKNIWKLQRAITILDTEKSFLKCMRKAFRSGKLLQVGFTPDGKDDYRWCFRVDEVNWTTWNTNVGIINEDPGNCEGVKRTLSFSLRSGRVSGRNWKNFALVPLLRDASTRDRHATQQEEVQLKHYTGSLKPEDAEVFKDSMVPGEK
Test: Relative potency(RTX) against Dorsal Root Ganglion (DRG) membranes using RTX binding assay.
Format: functional, tissue-based
Recorded Relative Potency by entry
readout type: Relative Potency

molecule	tested system	comparator	endpoint value
C=C(C)[C@@]12C[C@@H](C)C34OC(c5ccccc5)(OC1[C@@H]3C=C(COC(=O)Cc1ccc(O)c(OC)c1)C[C@]1(O)C(=O)C(C)=C[C@@H]41)O2 (some centres undefined)	UniProtKB O35433	=	0.21
C=C(C)[C@@]12C[C@@H](C)C34OC(C)(OC1[C@@H]3C=C(COC(=O)Cc1ccc(O)c(OC)c1)C[C@]1(O)C(=O)C(C)=C[C@@H]41)O2 (some centres undefined)	UniProtKB O35433	=	0.122
C=C(C)[C@]12C[C@@H](C)[C@@]34O[C@](Cc5ccccc5)(O[C@@H]1[C@@H]3C=C(COC(=O)Cc1ccc(O)c(OC)c1)C[C@]1(O)C(=O)C(C)=C[C@@H]41)O2	UniProtKB O35433	=	1
C=C(C)C12C[C@@H](C)C34OC(Cc5ccccc5)(OC1[C@@H]3C=C(CO)C[C@]1(O)C(=O)C(C)=CC41)O2 (single isomer, unassigned)	UniProtKB O35433	<	8e-05

----------
Molecular target: Vanilloid receptor (Rattus norvegicus, UniProt Q9ERZ8+Q9WUD2+O35433)
Experiment: Ability to stimulate uptake of Calcium into Dorsal Root Ganglion(DRG) neurons
Format: functional, tissue-based
readout type: EC50 (nM)

compound	tested system	readout type	comparator	endpoint value
C=C(C)C12C[C@@H](C)C34OC(Cc5ccccc5)(OC1[C@@H]3C=C(COC(=O)Cc1ccccc1)C[C@]1(O)C(=O)C(C)=CC41)O2 (single isomer, unassigned)	Vanilloid receptor (Rattus norvegicus, UniProt Q9ERZ8+Q9WUD2+O35433)	EC50	=	10.22
C=C(C)[C@]12C[C@@H](C)[C@@]34O[C@](Cc5ccccc5)(O[C@@H]1[C@@H]3C=C(COC(=O)Cc1ccc(O)c(OC)c1)C[C@]1(O)C(=O)C(C)=C[C@@H]41)O2	Vanilloid receptor (Rattus norvegicus, UniProt Q9ERZ8+Q9WUD2+O35433)	EC50	=	1.6
C=C(C)C12C[C@@H](C)C34OC(Cc5ccccc5)(OC1[C@@H]3C=C(COC(=O)Cc1ccc(OCCN)c(OC)c1)C[C@]1(O)C(=O)C(C)=CC41)O2 (single isomer, unassigned)	Vanilloid receptor (Rattus norvegicus, UniProt Q9ERZ8+Q9WUD2+O35433)	EC50	=	13.04
C=C(C)[C@@]12C[C@@H](C)C34OC(C)(OC1[C@@H]3C=C(COC(=O)Cc1ccc(O)c(OC)c1)C[C@]1(O)C(=O)C(C)=C[C@@H]41)O2 (stereo partly drawn)	Vanilloid receptor (Rattus norvegicus, UniProt Q9ERZ8+Q9WUD2+O35433)	EC50	=	13.2
C=C(C)[C@@]12C[C@@H](C)C34OC(c5ccccc5)(OC1[C@@H]3C=C(COC(=O)Cc1ccc(O)c(OC)c1)C[C@]1(O)C(=O)C(C)=C[C@@H]41)O2 (stereo partly drawn)	Vanilloid receptor (Rattus norvegicus, UniProt Q9ERZ8+Q9WUD2+O35433)	EC50	=	7.6
C=C(C)C12C[C@@H](C)C34OC(Cc5ccccc5)(OC1[C@@H]3C=C(CO)C[C@]1(O)C(=O)C(C)=CC41)O2 (single isomer, unassigned)	Vanilloid receptor (Rattus norvegicus, UniProt Q9ERZ8+Q9WUD2+O35433)	EC50	>	20000
C=C(C)[C@@]12C[C@@H](C)C34OC(Cc5ccccc5)(OC1[C@@H]3C=C(CNC(=O)Cc1ccc(O)c(OC)c1)C[C@]1(O)C(=O)C(C)=C[C@@H]41)O2 (stereo partly drawn)	Vanilloid receptor (Rattus norvegicus, UniProt Q9ERZ8+Q9WUD2+O35433)	EC50	=	122
C=C(C)C12C[C@@H](C)C34OC(Cc5ccccc5)(OC1[C@@H]3C=C(COC(=O)Cc1ccc(OC)c(OC)c1)C[C@]1(O)C(=O)C(C)=CC41)O2 (single isomer, unassigned)	Vanilloid receptor (Rattus norvegicus, UniProt Q9ERZ8+Q9WUD2+O35433)	EC50	=	14.89

The reported measurements were obtained from ChEMBL document CHEMBL1129076.
